pIC50: −log10 of the molar value.
Literature roundup of Protein deacetylase HDAC6 (Homo sapiens, UniProt Q9UBN7) data, read-out pIC50.

compound	measured_result
CC(NC(=O)c1cc2cc(Cl)ccc2o1)c1ncc(C(=O)NO)s1 (centres unmarked)	> 7.00
COc1ccc(Cn2cccc2/C=C/C(=O)NO)cc1	5.00 to 6.00
COc1cccc(Oc2ccccc2/C=C/C(=O)NO)c1	6.00 to 7.00
O=C(NO)c1cnc2ccc(Oc3cccc(Cl)c3)cc2c1	6.30 to 7.00

GET /values?readout=pIC50&item= O=C(NO)c1cc2c(s1)CN(C(=O)c1cccc3cccnc13)CC2 > 7.30

====

// cross-source set; read-out = pIC50; system = Protein deacetylase HDAC6 (Homo sapiens, UniProt Q9UBN7)
pIC50: −log10 of the molar value.

For orientation, consider the following solved cases.
smiles_data	target	pIC50
COc1cc2c(Oc3ccc(NC(=O)C4(C(=O)Nc5ccc(F)cc5)CC4)cc3F)ccnc2cc1OCCCCCCNC(=O)CS	Protein deacetylase HDAC6 (Homo sapiens, UniProt Q9UBN7)	7.54
Cn1cnc2c(NC3CCCCC3)nc(Nc3ccc(OCCCCCCC(=O)NO)cc3)nc21	Protein deacetylase HDAC6 (Homo sapiens, UniProt Q9UBN7)	8.17

Provide the documented pIC50 with Protein deacetylase HDAC6 (Homo sapiens, UniProt Q9UBN7) as the system for C[C@H](NC(=O)C12CC3CC(CC(C3)C1)C2)c1ncc(C(=O)NO)s1 < 6.30

Query the reported pIC50 for Protein deacetylase HDAC6 (Homo sapiens, UniProt Q9UBN7); item: O=C(NO)c1cnc(NC2(c3ccccc3)CCN(C(=O)Nc3ccccc3F)CC2)nc1 8.77

Lab request: please report pIC50 under test system Protein deacetylase HDAC6 (Homo sapiens, UniProt Q9UBN7) for O=C(NO)c1ccc2c(c1)CCN(Cc1ccc3nonc3c1)C2 6.30 to 7.00

====

Hi, quick share: literature IC50 data for Protein deacetylase HDAC6 (Homo sapiens), several sources combined.

Test system Protein deacetylase HDAC6 (Homo sapiens); read-out IC50; what value for O=C(NO)c1cnc2ccc(NCc3ccccc3)cc2c1 ? < 100 nM

Notebook entry, Protein deacetylase HDAC6 (Homo sapiens) assay: IC50 of O=C(NO)c1cnc2cc(Oc3ccnc(NC(=O)C4CC4)c3)ccc2c1 = ? 100 to 500 nM

Could you share what IC50 was measured for CC[C@H](Nc1ncnc(N)c1C(N)=O)c1nc2cccc(NCc3ccc(C(=O)NO)cn3)c2c(=O)n1-c1ccccc1 , tested on Protein deacetylase HDAC6 (Homo sapiens)? < 100 nM

Missing value: IC50, Protein deacetylase HDAC6 (Homo sapiens), entry O=C(NO)c1cc2c(s1)CN(C(=O)C(C1CCCCC1)C1CCCCC1)CC2 . Fill in? 50 to 100 nM

Recall the recorded IC50 for O=C(NO)c1cnc2ccc(Oc3ccc(Cl)cc3)cc2c1 with Protein deacetylase HDAC6 (Homo sapiens) and state it. 100 to 500 nM

# value lookup — system Protein deacetylase HDAC6 (Homo sapiens), readout IC50, item CC(=O)N1CCC(Nc2ncc(C(=O)NO)cn2)(c2ccccc2)CC1 1.6 nM

# returns recorded IC50 (system: Protein deacetylase HDAC6 (Homo sapiens)) for CC1(C)CN(C(=O)c2sc3ccccc3c2Cl)Cc2cc(C(=O)NO)sc21 > 1000 nM

Give IC50 (Protein deacetylase HDAC6 (Homo sapiens)) of the following compound: CN(C)Cc1ccc(/C=C/C(=O)NO)cc1 6820 nM

Value wanted: IC50 (Protein deacetylase HDAC6 (Homo sapiens)) of entry CC(C)(C)c1ccccc1NC(=O)N1CCc2cc(C(=O)NO)ccc2C1 < 50 nM

====

Multi-source literature compilation: IC50 on Protein deacetylase HDAC6 (Homo sapiens).

// below: answered molecules
molecule	IC50
Cc1nsc(N(CCCCCCC(=O)NO)c2ccnc(N3CCOCC3)n2)n1	≤ 100 nM
O=C(NO)c1ccc2ncn(Cc3ccccc3)c2c1	1000 to 10000 nM
C[C@H](NC(=O)c1cc2ccccc2s1)c1ncc(C(=O)NO)s1	< 100 nM
CC(C)C[C@@H](C(=O)N1CCC(Nc2ncc(C(=O)NO)cn2)(c2ccccc2)CC1)c1ccccc1 (stereo in doubt)	12 nM

Reported IC50 for Protein deacetylase HDAC6 (Homo sapiens), given O=C(NO)c1ccc2c(c1)CCN(C(=O)Nc1cccc3ccccc13)C2 ? < 50 nM

Report IC50 for O=C(NO)c1cc2c(s1)CN(C(=O)C1CCCCC1)CC2 tested on Protein deacetylase HDAC6 (Homo sapiens). < 50 nM

====

The entries that follow carry pIC50 values tested on Protein deacetylase HDAC6 (Homo sapiens, UniProt Q9UBN7), drawn from several published reports.
pIC50: −log10 of the molar value.

Answered examples (3):
compound	measured_result
C[C@@H](NC(=O)c1cc2ccccc2o1)c1ncc(C(=O)NO)s1	> 7.00
CC(NC(=O)Nc1ccc(C(C)(C)C)cc1)c1ccc(C(=O)NO)s1 (stereo not shown)	> 7.00
Nc1[nH]ncc1C(=O)N1CCc2cc(C(=O)NO)sc2C1	> 7.30

Find the measured pIC50: item O=C(NO)c1cnc2cc(Oc3ccc(Cl)cc3)ccc2c1 , target or system Protein deacetylase HDAC6 (Homo sapiens, UniProt Q9UBN7). 6.30 to 7.00

Form field: pIC50 recorded for O=C(Cn1ccc2ccc(C(=O)NO)cc21)Nc1ccccc1 with Protein deacetylase HDAC6 (Homo sapiens, UniProt Q9UBN7) (enter value) < 5.00

# get_value(readout= pIC50, system= Protein deacetylase HDAC6 (Homo sapiens, UniProt Q9UBN7)) for O=C(NO)c1ccc2c(c1)CCN(S(=O)(=O)c1ccc(C(F)(F)F)cc1)C2 7.00 to 7.30

Provide the documented pIC50 with Protein deacetylase HDAC6 (Homo sapiens, UniProt Q9UBN7) as the system for Cc1noc(N(CCCCCCC(=O)NO)c2cncc(N3CCOCC3)n2)n1 ≥ 7.00

Write down the reported pIC50 of CC(NC(=O)NC1CCCC1)c1ccc(C(=O)NO)s1 (stereo not shown) , test system: Protein deacetylase HDAC6 (Homo sapiens, UniProt Q9UBN7). > 7.00

====

pIC50: −log10 of the molar value.
Published pIC50 for UniProtKB Q9UBN7, assembled from different documents, is shown next.

compound	pIC50
O=C(NO)c1ccc(Cn2ccc(C3(c4ccc(F)cc4)CCCO3)cc2=O)cn1 (stereo not drawn)	6.70 to 7.30
O=C(NO)c1cc2c(s1)CN(C(=O)c1ccc3ncccc3c1)CC2	> 7.30
O=C(CCCCC=C(c1ccccn1)c1ccccn1)NO	7.17
O=C1CCc2c(Oc3ccc4cc(C(=O)NO)cnc4c3)ccnc2N1	6.30 to 7.00
Cc1ccc(/C=C/CC(=O)Nc2ccc(C(=O)Nc3ccc(F)cc3N)nc2)cn1	< 5.00

# returns recorded pIC50 (system: UniProtKB Q9UBN7) for O=C(NO)c1cnc(NC2(c3ccccc3)CCN(C(=O)Cc3cc4ccccc4[nH]3)CC2)nc1 8.30

Form field - read-out: pIC50; system: UniProtKB Q9UBN7; submitted item: Cc1ccc(S(=O)(=O)N2CCc3cc(C(=O)NO)ccc3C2)cc1 7.00 to 7.30

// fetch UniProtKB Q9UBN7 pIC50 for C[C@H](NC(=O)c1cc2ccccc2s1)c1ccc(C(=O)NO)s1 > 7.00

# returns recorded pIC50 (system: UniProtKB Q9UBN7) for CCc1cc(C(=O)N2CCc3cc(C(=O)NO)sc3C2)n(C)n1 > 7.30

====

Multi-source literature compilation: IC50 on Protein deacetylase HDAC6 (Homo sapiens).

Known results for compounds:
compound	IC50
Cc1ccccc1S(=O)(=O)N1CCC(Nc2ncc(C(=O)NO)cn2)(c2ccccc2)CC1	4.5 nM
O=C(/C=C/c1cccn1CCOc1cccc(F)c1)NO	1000 to 10000 nM
O=C1CCc2c(Oc3ccc4ncc(C(=O)NO)cc4c3)ccnc2N1	100 to 500 nM
O=C(NO)c1ccc(NCc2ccccc2)cc1	15 to 25 nM
COc1ccc(Cl)cc1CNc1ccc(C(=O)NO)cc1	1 to 6 nM
O=C(NO)c1ccc(Cn2ccc(C3(c4c(F)cc(F)cc4F)CCCO3)cc2=O)cc1 (stereo not drawn)	10 to 50 nM
O=C(NO)c1ccc2c(c1)CCN(CCC(=O)N1CCc3ccccc31)C2	50 to 100 nM
O=C(Nc1ccccc1)Nc1ccc2ncc(C(=O)NO)cc2c1	< 100 nM
Cc1cc(C)n(CC(=O)N2CCc3cc(C(=O)NO)ccc3C2)n1	100 to 500 nM
Cc1cc(C)c(NC(=O)N2CCc3cc(C(=O)NO)sc3C2)c(C)c1	< 50 nM

Tell me reported IC50 for O=C(NO)c1cc2c(s1)CN(Cc1ccc(-n3cccn3)cc1)CC2 , tested with Protein deacetylase HDAC6 (Homo sapiens). < 50 nM

====

IC50 for Protein deacetylase HDAC6 (Homo sapiens), merged from several publications.

Here's what some known entries look like.
compound	target	measured_result
O=C(/C=C/c1ccccc1Oc1cccc(F)c1)NO	Protein deacetylase HDAC6 (Homo sapiens)	1 to 10 µM
O=C(/C=C/c1ccc(OCc2cccnc2)cc1Oc1cccc(Cl)c1)NO	Protein deacetylase HDAC6 (Homo sapiens)	0.1 to 1 µM
Cc1oc(-c2ccccc2)nc1CC(=O)N1CCc2cc(C(=O)NO)sc2C1	Protein deacetylase HDAC6 (Homo sapiens)	< 0.05 µM
Cc1cc(C(F)(F)F)nn1CC(=O)N1CCc2cc(C(=O)NO)ccc2C1	Protein deacetylase HDAC6 (Homo sapiens)	0.1 to 0.5 µM
O=C(NO)c1ccc2c(c1)CCCN(C(=O)C1CCCCCC1)C2	Protein deacetylase HDAC6 (Homo sapiens)	0.1 to 0.5 µM
CC(NC(=O)NCc1ccccc1)c1ccc(C(=O)NO)s1 (stereo not drawn)	Protein deacetylase HDAC6 (Homo sapiens)	< 0.1 µM
C[C@@H](NC(=O)c1cc2ccccc2o1)c1ccc(C(=O)NO)s1	Protein deacetylase HDAC6 (Homo sapiens)	< 0.1 µM
C[C@@H](NC(=O)c1cc(Cl)c(Cl)n1C)c1ccc(C(=O)NO)s1	Protein deacetylase HDAC6 (Homo sapiens)	< 0.1 µM

Please provide the recorded IC50 for CN(C(=O)CCCCCCCNc1cccc2c1C(=O)N(C1CCC(=O)NC1=O)C2=O)c1ccc(NC(=O)CCCCCCC(=O)NO)cc1 (stereo not drawn) , tested on Protein deacetylase HDAC6 (Homo sapiens). 0.0401 µM

Test system Protein deacetylase HDAC6 (Homo sapiens); read-out IC50; what value for O=C(NO)c1ccc2c(c1)CCCN(C(=O)c1cc3ccccc3o1)C2 ? < 0.05 µM

Reported IC50 for Protein deacetylase HDAC6 (Homo sapiens), given Cn1ccc2ncnc(N(CCCCCCC(=O)NO)c3cnccn3)c21 ? ≤ 0.1 µM

Write down the reported IC50 of CC(C)(C(=O)N1CCc2ccc(C(=O)NO)cc2CC1)c1ccc(Cl)cc1 , test system: Protein deacetylase HDAC6 (Homo sapiens). < 0.05 µM
